# Target desc: Protein kinase C gamma type (Homo sapiens) (UniProt P05129);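 further: each value is an averaged percent inhibition of the enzyme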
# Run conditions: at 1 µM
Assay metric: inhibition (%)

>>> measured_number("CN(C)c1cc2c(Nc3ccc4nc(Cc5ccccc5)[nH]c4c3)ncnc2cn1")
4.36
>>> measured_number("O=C1NC(=O)C(N2CCc3ccccc32)=C1c1ccc(Cl)cc1")
2.33
>>> measured_number("COc1ccc(-c2nn3ncccc3c2-c2ccnc(Nc3ccc(Cl)c(C(F)(F)F)c3)n2)cc1")
-0.57
>>> measured_number("O=C1NC(=O)C(c2ccccc2Cl)=C1Nc1cccc(O)c1")
1.06
>>> measured_number("COc1cc2c(cc1Nc1nc(N3CCc4ccccc43)c3cc[nH]c3n1)N(C(=O)CN(C)C)CC2")
5.19
>>> measured_number("Cc1cc(O)cc(C)c1/C=C/c1cncc(-c2nn[nH]n2)c1")
3.79
>>> measured_number("COc1cc(C=NNc2ncnc3c2cnn3-c2ccccc2)ccc1O")
12.4
>>> measured_number("CN1CCC(C(=O)Nc2n[nH]c3nnc(-c4ccccc4)cc23)CC1")
5.3
>>> measured_number("COc1ccc(COc2ccc(Cc3cnc(N)nc3N)cc2OC)cc1")
0.23
>>> measured_number("CC1=C(C(=O)Nc2ccc3[nH]ncc3c2)C(c2ccc(Cl)c(Cl)c2)CC(=O)N1 (stereo not given)")
-2.08

----------
# Target desc: SRSF protein kinase 3 (Homo sapiens);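 further: mean of replicate inhibition values against MSSK1 kinase, profiled within the GSK PKIS kinase inhibitor set screen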
# Run conditions: at 0.1 µM
Assay metric: inhibition (%)

>>> measured_number("CS(=O)(=O)CCNCc1ccc(-c2ccc3ncnc(Nc4ccc(OCc5ccccc5)c(Cl)c4)c3c2)o1")
2.57
>>> measured_number("Cn1cc(C=C2C(=O)Nc3cccnc32)c2ccccc21")
-0.25
>>> measured_number("O=C1NC(=O)C(c2ccc(Cl)cc2)=C1Nc1ccc(Cl)c(C(=O)O)c1")
0.85
>>> measured_number("COc1ccc(-c2nn3ncccc3c2-c2ccnc(Nc3ccc(Cl)c(C(F)(F)F)c3)n2)cc1")
-2.03
>>> measured_number("COc1cc2c(cc1Nc1nc(N3CCc4ccccc43)c3cc[nH]c3n1)N(C(=O)CN(C)C)CC2")
0.87
>>> measured_number("CCN1CCC(CC(=O)Nc2n[nH]c3nc(-c4cccs4)c(Br)cc23)CC1")
-0.78
>>> measured_number("NS(=O)(=O)c1ccc(N/N=C2\\C(=O)Nc3ccc(C(=O)NCCc4c[nH]cn4)cc32)cc1")
1.31
>>> measured_number("COc1cccc(-n2ncc3c(N/N=C/c4cccc(F)c4)ncnc32)c1")
-2.57
>>> measured_number("COc1cc2ncn(-c3cc(OCc4ccccc4Cl)c(C(N)=O)s3)c2cc1OC")
-0.61

----------
# Target desc: Serine/threonine-protein kinase Nek7 (Homo sapiens) (UniProt Q8TDX7);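 further: reported values are mean inhibition of NEK7 from the GSK PKIS kinase screening panel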
# Sequence (Q8TDX7 whole entry, looked up): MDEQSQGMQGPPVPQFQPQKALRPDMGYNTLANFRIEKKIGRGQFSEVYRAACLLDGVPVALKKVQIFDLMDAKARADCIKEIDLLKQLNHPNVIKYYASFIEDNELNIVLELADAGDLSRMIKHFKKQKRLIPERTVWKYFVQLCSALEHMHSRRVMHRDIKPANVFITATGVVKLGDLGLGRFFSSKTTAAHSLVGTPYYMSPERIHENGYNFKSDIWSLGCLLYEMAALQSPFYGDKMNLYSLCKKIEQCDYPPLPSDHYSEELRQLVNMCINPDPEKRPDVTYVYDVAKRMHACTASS
# Run conditions: at 1 µM
Assay metric: inhibition (%)

>>> measured_number("COC(=O)Nc1nc2cc(Oc3ccc(NC(=O)Nc4cccc(C(=O)O)c4)cc3)ccc2[nH]1")
-0.18
>>> measured_number("Cc1ccc(NC(=O)c2ccnc(N3CCCC3)c2)cc1-c1ccc(C(=O)NCC2CC2)cc1")
4.61
>>> measured_number("O=C1NC(=O)C(N2CCc3ccccc32)=C1c1ccc(Cl)cc1")
4.24
>>> measured_number("NS(=O)(=O)c1ccc(N/N=C2\\C(=O)Nc3ccc(C(=O)NCCc4c[nH]cn4)cc32)cc1")
7.05
>>> measured_number("CCn1c(-c2nonc2N)nc2c(N3CCCC3)nccc21")
-1.35
>>> measured_number("COc1cc2ncn(-c3cc(O[C@@H](C)c4ccccc4Cl)c(C(N)=O)s3)c2cc1OC")
4.57
>>> measured_number("COc1ccc(-c2nn3ncccc3c2-c2ccnc(Nc3ccc(Cl)c(C(F)(F)F)c3)n2)cc1")
3.28
>>> measured_number("CS(=O)(=O)CCNCc1ccc(-c2ccc3ncnc(Nc4ccc(OCc5ccccc5)c(Cl)c4)c3c2)o1")
2.5
>>> measured_number("CCn1c(-c2nonc2N)nc2cncc(C(=O)N3CCNCC3)c21")
10.8
>>> measured_number("CN1CCC(C(=O)Nc2n[nH]c3nnc(-c4ccccc4)cc23)CC1")
4.97
>>> measured_number("NS(=O)(=O)c1cccc(-c2ccc3c(NC(=O)C4CC4)n[nH]c3c2)c1")
-2.64
>>> measured_number("CCn1c(-c2nonc2N)nc2cnc(Oc3cccc(NC(=O)c4ccc(OCCN5CCOCC5)cc4)c3)cc21")
3.89
>>> measured_number("CNC(=O)c1cncc(/C=C/c2c(Cl)cccc2Cl)c1")
9.84
>>> measured_number("O=C1NC(=O)C(c2ccccc2Cl)=C1Nc1cccc(O)c1")
2.35
>>> measured_number("Nc1nc(-c2ccccn2)c(-c2ccc3ncccc3n2)s1")
2.77
>>> measured_number("CS(=O)(=O)CCN(CC#N)Cc1ccc(-c2ccc3ncnc(Nc4ccc(OCc5cccc(F)c5)c(Cl)c4)c3c2)o1")
7.27
>>> measured_number("Cn1cc(C=C2C(=O)Nc3cccnc32)c2ccccc21")
4.49
>>> measured_number("NCc1ccc(-c2nc(-c3ccc(Cl)c(O)c3)c(-c3ccncc3)[nH]2)cc1")
1.7
>>> measured_number("CC1=C(C(=O)Nc2ccc3[nH]ncc3c2)C(c2ccc(F)cc2)NC(=O)N1 (stereo not given)")
2.72
>>> measured_number("CC(=O)Nc1cccc(C#Cc2cncnc2Nc2ccc(OCc3cccc(F)c3)c(Cl)c2)n1")
-3.8

----------
# Target desc: Epidermal growth factor receptor (Homo sapiens) (UniProt P00533)
# Sequence (P00533 whole entry): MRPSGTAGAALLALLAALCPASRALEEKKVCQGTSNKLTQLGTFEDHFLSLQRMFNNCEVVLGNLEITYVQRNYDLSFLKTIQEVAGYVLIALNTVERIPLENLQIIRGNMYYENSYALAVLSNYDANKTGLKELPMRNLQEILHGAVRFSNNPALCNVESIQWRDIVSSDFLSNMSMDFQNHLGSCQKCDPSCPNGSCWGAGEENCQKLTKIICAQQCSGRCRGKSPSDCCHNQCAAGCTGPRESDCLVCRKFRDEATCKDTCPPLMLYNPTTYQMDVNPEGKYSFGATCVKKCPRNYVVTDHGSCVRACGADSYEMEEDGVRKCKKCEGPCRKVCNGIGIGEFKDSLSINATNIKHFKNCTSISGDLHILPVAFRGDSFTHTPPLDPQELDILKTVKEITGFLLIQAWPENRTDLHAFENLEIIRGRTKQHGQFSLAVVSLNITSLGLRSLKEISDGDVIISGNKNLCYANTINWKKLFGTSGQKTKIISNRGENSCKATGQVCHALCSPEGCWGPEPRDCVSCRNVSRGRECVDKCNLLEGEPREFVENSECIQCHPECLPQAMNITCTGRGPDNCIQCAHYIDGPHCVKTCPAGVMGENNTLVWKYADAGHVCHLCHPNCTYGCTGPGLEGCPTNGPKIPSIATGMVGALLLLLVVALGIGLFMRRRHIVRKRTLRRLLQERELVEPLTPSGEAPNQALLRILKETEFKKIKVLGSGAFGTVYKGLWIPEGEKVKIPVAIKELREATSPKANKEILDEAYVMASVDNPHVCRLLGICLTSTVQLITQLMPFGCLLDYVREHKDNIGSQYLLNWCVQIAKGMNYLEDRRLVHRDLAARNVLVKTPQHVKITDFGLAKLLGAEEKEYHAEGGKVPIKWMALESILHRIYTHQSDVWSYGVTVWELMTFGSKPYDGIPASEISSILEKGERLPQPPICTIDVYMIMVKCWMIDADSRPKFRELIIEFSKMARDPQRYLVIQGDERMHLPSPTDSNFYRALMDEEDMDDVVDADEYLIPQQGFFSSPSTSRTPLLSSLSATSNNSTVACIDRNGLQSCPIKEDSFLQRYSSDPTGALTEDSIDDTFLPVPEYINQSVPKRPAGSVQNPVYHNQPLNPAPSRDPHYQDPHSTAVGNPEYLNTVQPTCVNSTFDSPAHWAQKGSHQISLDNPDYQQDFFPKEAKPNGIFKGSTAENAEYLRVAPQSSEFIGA
# Run conditions: at 0.1 µM
# Description: GSK_PKIS: EGFR mean inhibition at 0.1 uM [Nanosyn]
Assay metric: inhibition (%)

>>> measured_number("Nc1nc(-c2ccccn2)c(-c2ccc3ncccc3n2)s1")
1.32
>>> measured_number("CNC(=O)c1cncc(/C=C/c2c(Cl)cccc2Cl)c1")
-0.54
>>> measured_number("Nc1ncnc2occ(-c3ccc(NC(=O)Nc4cccc(C(F)(F)F)c4)cc3)c12")
1.36
>>> measured_number("CCN1CCC(CC(=O)Nc2n[nH]c3nc(-c4cccs4)c(Br)cc23)CC1")
1.1
>>> measured_number("Cc1ccc(NC(=O)c2ccnc(N3CCCC3)c2)cc1-c1ccc(C(=O)NCC2CC2)cc1")
-4.33
>>> measured_number("COc1cc(C)c(NC(=O)CN(C)C)cc1Nc1nc(Nc2cccc(F)c2C(N)=O)c2cc[nH]c2n1")
-1.1
>>> measured_number("CS(=O)(=O)CCNCc1ccc(-c2ccc3ncnc(Nc4ccc(OCc5ccccc5)c(Cl)c4)c3c2)o1")
82.5
>>> measured_number("COc1ccc(-c2ccncc2)cc1C(N)=O")
4.47
>>> measured_number("CCCN1CCC(Oc2cc(Nc3nc(Nc4cccc(F)c4C(N)=O)c4cc[nH]c4n3)c(OC)cc2Cl)CC1")
1.11
>>> measured_number("CCn1c(-c2nonc2N)nc2cncc(C(=O)N3CC[C@H](N)C3)c21")
0.8

----------
# Target desc: 5'-AMP-activated protein kinase catalytic subunit alpha-2 (Homo sapiens) (UniProt P54646);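 further: mean inhibition measured on the AMPK complex of alpha2, beta1 and gamma1 subunits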
# Sequence (P54646 whole entry, looked up): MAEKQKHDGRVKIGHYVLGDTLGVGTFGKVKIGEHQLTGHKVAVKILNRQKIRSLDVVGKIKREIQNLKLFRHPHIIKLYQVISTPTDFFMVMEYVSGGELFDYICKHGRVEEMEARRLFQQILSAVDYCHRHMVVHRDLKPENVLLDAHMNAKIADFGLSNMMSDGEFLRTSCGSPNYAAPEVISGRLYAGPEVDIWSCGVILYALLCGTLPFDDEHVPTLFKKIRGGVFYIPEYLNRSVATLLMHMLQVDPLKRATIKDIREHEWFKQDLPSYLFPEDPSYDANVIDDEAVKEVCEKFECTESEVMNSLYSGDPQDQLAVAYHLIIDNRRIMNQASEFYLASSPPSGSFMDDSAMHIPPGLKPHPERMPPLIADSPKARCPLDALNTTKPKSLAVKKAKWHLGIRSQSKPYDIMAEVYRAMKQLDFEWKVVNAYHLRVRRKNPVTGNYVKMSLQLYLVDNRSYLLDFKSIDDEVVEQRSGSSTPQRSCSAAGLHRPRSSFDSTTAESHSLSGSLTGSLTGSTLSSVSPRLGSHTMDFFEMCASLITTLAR
# Run conditions: at 0.1 µM
# Description: GSK_PKIS: AMPKA2 (A2B1G1) mean inhibition at 0.1 uM [Nanosyn]
Each entry below lists one item and its recorded inhibition value.
Assay metric: inhibition (%)

>>> measured_number("CS(=O)(=O)CCNCc1nc(-c2ccc3ncnc(Nc4ccc(F)c(Cl)c4)c3c2)cs1")
-4.68
>>> measured_number("CCCN1CCC=C(c2ccc(Nc3nc(Nc4ccccc4C(N)=O)c4cc[nH]c4n3)c(C)c2)C1")
8.68
>>> measured_number("COc1cc(C)c(NC(=O)CN(C)C)cc1Nc1nc(Nc2cccc(F)c2C(N)=O)c2cc[nH]c2n1")
1.06
>>> measured_number("COc1cccc(-n2ncc3c(N/N=C/c4cccc(F)c4)ncnc32)c1")
4.7
>>> measured_number("O=C1NC(=O)C(c2cccc(Cl)c2)=C1Nc1ccc(O)c(Cl)c1")
0.44

----------
Each entry below lists one item and its recorded inhibition value.
# Target desc: Casein kinase I isoform gamma-2 (Homo sapiens) (UniProt P78368);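 further: values are mean inhibition figures reported as part of the GSK PKIS dataset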
# Sequence (P78368 whole entry, looked up, canonical isoform): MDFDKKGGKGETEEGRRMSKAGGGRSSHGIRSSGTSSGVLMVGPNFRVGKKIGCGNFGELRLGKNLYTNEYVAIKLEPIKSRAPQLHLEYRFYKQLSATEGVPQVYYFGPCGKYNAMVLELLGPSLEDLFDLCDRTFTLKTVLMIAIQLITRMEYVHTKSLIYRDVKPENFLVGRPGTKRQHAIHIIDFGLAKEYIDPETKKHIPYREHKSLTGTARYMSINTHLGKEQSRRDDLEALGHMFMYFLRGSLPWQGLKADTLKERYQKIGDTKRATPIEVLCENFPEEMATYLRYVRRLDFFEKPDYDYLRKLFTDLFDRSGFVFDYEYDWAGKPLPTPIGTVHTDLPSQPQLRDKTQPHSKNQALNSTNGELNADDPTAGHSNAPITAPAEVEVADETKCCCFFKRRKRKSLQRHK
# Run conditions: at 0.1 µM
Assay metric: inhibition (%)

>>> measured_number("O=C1NC(=O)C(N2CCc3ccccc32)=C1c1ccc(Cl)cc1")
2.83
>>> measured_number("CC(C)=Cc1cccc2c1/C(=N/Nc1ccc(S(N)(=O)=O)cc1)C(=O)N2")
1.67
>>> measured_number("CN(C)c1cc2c(Nc3ccc4nc(Cc5ccccc5)[nH]c4c3)ncnc2cn1")
3.69
>>> measured_number("CCn1c(-c2nonc2N)nc2c(C#CC(C)(C)O)nc(CN3CCCC3)cc21")
-0.27
>>> measured_number("Fc1cccc(COc2ccc(Nc3ncnc4sc(-c5cccs5)cc34)cc2Cl)c1")
0.42

----------
Each entry below lists one item and its recorded inhibition value.
# Target desc: Ephrin type-B receptor 4 (Homo sapiens) (UniProt P54760);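 further: reported value is the mean percent inhibition of EPHB4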
# Sequence (whole entry): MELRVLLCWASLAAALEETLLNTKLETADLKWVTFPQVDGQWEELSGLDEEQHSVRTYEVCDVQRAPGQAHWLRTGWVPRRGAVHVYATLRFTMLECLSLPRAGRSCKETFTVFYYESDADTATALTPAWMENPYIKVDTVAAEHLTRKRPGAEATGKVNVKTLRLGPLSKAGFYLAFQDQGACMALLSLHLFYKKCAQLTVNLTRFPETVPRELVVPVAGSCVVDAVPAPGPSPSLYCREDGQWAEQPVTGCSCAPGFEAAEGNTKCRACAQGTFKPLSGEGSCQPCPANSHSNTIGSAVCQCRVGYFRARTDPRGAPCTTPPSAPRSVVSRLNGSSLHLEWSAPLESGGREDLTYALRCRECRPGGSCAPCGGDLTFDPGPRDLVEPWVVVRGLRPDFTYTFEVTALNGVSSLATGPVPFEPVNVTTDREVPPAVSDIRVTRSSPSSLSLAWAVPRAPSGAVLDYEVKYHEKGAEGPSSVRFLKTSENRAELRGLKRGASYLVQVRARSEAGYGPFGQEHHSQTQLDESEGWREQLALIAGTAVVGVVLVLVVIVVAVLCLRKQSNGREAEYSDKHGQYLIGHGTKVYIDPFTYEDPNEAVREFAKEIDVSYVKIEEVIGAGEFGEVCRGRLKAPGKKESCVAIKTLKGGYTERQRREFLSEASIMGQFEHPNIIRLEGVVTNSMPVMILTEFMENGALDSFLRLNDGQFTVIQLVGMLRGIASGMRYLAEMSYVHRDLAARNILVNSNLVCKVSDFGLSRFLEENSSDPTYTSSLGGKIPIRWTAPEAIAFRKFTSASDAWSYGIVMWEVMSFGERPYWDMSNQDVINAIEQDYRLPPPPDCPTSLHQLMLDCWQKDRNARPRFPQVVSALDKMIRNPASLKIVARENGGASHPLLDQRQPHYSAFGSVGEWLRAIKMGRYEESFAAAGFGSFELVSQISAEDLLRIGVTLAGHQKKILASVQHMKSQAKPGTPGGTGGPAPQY
# Run conditions: at 1 µM
Assay metric: inhibition (%)

>>> measured_number("Cc1ccc(C(=O)NC2CCCCC2)cc1-c1ccc(C(=O)NCC2CC2)cc1")
0.58
>>> measured_number("Cc1cccc(-c2n[nH]cc2-c2ccc3ncccc3n2)n1")
2.61
>>> measured_number("NC(=O)c1cccc(Nc2nccc(Nc3cccc4[nH]ncc34)n2)c1")
72.1
>>> measured_number("CC1=C(C(=O)Nc2ccc3[nH]ncc3c2)C(c2ccc(Cl)c(Cl)c2)CC(=O)N1 (stereo not given)")
1.59
>>> measured_number("O=C1NC(=O)C(c2ccc(Cl)cc2)=C1Nc1ccc(Cl)c(C(=O)O)c1")
-1.57
>>> measured_number("COc1ccc(-c2coc3ncnc(N)c23)cc1")
3.43
>>> measured_number("CS(=O)(=O)CCN(CC#N)Cc1ccc(-c2ccc3ncnc(Nc4ccc(OCc5cccc(F)c5)c(Cl)c4)c3c2)o1")
-3.31
>>> measured_number("COc1cc2ncn(-c3cc(OCc4ccccc4C(F)(F)F)c(C(N)=O)s3)c2cc1OC")
1.61
>>> measured_number("Cn1cc(C=C2C(=O)Nc3cccnc32)c2ccccc21")
5.16
>>> measured_number("CCn1c(-c2nonc2N)nc2c(N3CCCC3)nccc21")
-1.17
>>> measured_number("COc1cc2c(cc1Nc1nc(N3CCc4ccccc43)c3cc[nH]c3n1)N(C(=O)CN(C)C)CC2")
0.73
>>> measured_number("CCn1c(-c2nonc2N)nc2cnc(Oc3cccc(NC(=O)c4ccc(OCCN5CCOCC5)cc4)c3)cc21")
3.05
>>> measured_number("CS(=O)(=O)CCNCc1nc(-c2ccc3ncnc(Nc4ccc(F)c(Cl)c4)c3c2)cs1")
8.6
>>> measured_number("Nc1ncnc2occ(-c3ccc(NC(=O)Nc4cc(C(F)(F)F)cc(C(F)(F)F)c4)cc3)c12")
41.4
>>> measured_number("COc1ccccc1Nc1ncc(-c2ccccc2)o1")
5.33
>>> measured_number("COc1cc(C)c(NC(=O)CN(C)C)cc1Nc1nc(Nc2cccc(F)c2C(N)=O)c2cc[nH]c2n1")
1.31
>>> measured_number("Nc1nc(-c2ccc3c(c2)C(=Cc2cc(Br)c(O)c(Br)c2)C(=O)N3)cs1")
-2.45
>>> measured_number("O=C1NC(=O)C(c2cccc(Cl)c2)=C1Nc1ccc(O)c(Cl)c1")
-0.03
>>> measured_number("CC1=C(C(=O)Nc2ccc3[nH]ncc3c2)C(c2ccc(F)cc2)NC(=O)N1 (stereo not given)")
0.92
>>> measured_number("COc1cc2ncn(-c3cc(O[C@@H](C)c4ccccc4Cl)c(C(N)=O)s3)c2cc1OC")
4.23
